Test system: isolated renal cortical cells (IRCC)
Measurement Notes: LDH release from isolated renal cortical cells
Assay Conditions: 4-A2CP 0.5 and 1.0 mM; pretreatment concentration and time per Table 1
Reported Property: Effect of pretreatment on 4-A2CP cytotoxicity

CCCCCCCCN = No alteration
O=C1O[C@H]([C@@H](O)CO)C(O)=C1O [Ascorbate] = attenuated
NNC(=O)c1ccncc1 = No alteration
CCCCOCCOCCOCc1cc2c(cc1CCC)OCO2 [Piperonyl butoxide] = attenuated
